Could you please report measured percentage of input antibody bound for the items listed next?
Target: T1, human glycophorin A on human red blood cells or red blood cell membranes (human, UniProt P02724 20-150)
T1 construct: whole, on cells; also called hRBC; human RBC membranes
T1 sequence (looked up): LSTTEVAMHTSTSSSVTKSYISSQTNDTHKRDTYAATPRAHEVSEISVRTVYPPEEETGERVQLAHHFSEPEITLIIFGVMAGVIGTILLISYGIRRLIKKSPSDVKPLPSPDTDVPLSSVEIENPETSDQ
Assay: Fab 7 ug/ml on intact human RBC, unbound Fab by ELISA; pre-dilution
Numbers only, in %.

Use these answered entries as a reference point.
[
  {
    "BINDER": "TPP-7793, affinity matured 6C12 Fab (Fab, V domains shown, Tested as Fab) VH: EVQLVQSGAEVKKPGASVKVSCKASGYTFTRYTIHWVRQAPGQGLEWMGYINPSSGYTRYNPKFKGRVTMTRDKSTSTAYMELRSLRSDDTAVYYCWTGTRDYWGQGTTVTVSS VL: DIQLTQSPSFLSASVGDRVTITCRASSSVSYIYWFQQKPGKAPKLLIYATSTLQSGVPSRFSGSGSGTEYTLTISSLQPEDFATYYCHQRNSFPYTFGQGTKLEIK",
    "percentage of input antibody bound / %": 98
  },
  {
    "BINDER": "TPP-7792, affinity matured 6C12 Fab (Fab, V domains shown, Tested as Fab with a 6xHIS tag) VH: EVQLVQSGAEVKKPGASVKVSCKASGYTFTTYAIHWVRQAPGQGLEWMGYINPSSGYTRYNPKFKGRVTMTRDKSTSTAYMELRSLRSDDTAVYYCWTGTRDYWGQGTTVTVSS VL: DIQLTQSPSFLSASVGDRVTITCRASSSVRYIYWFQQKPGKAPKLLIYATSFRQSGVPSRFSGSGSGTEYTLTISSLQPEDFATYYCHQRNSFPYTFGQGTKLEIK",
    "percentage of input antibody bound / %": 98
  },
  {
    "BINDER": "TPP-7783, affinity matured 6C12 Fab (Fab, V domains shown, Tested as Fab) VH: EVQLVQSGAEVKKPGASVKVSCKASGYTFTTYAIHWVRQAPGQGLEWMGYINPSSGYTRYNPKFKHRVTMTRDKSTSTAYMELRSLRSDDTAVYYCWTGTRDYWGQGTTVTVSS VL: DIQLTQSPSFLSASVGDRVTITCRASSSVRYIYWFQQKPGKAPKLLIYATSFRRSGVPSRFSGSGSGTEYTLTISSLQPEDFATYYCHQRNSFPYTFGQGTKLEIK",
    "percentage of input antibody bound / %": 90
  }
]

Hey, can you go through the list below and give me percentage of input antibody bound for every item?
1. TPP-7781, affinity matured 6C12 Fab (Fab, V domains shown, Tested as Fab) VH: EVQLVQSGAEVKKPGASVKVSCKASGYTFTTYTIHWVRQAPGQGLEWMGYINPKSGWTRYNPKFKGRVTMTRDKSTSTAYMELRSLRSDDTAVYYCQTGTRDYWGQGTTVTVSS VL: DIQLTQSPSFLSASVGDRVTITCRASSSVRYIYWFQQKPGKAPKLLIYATSTLQSGVPSRFSGSGSGTEYTLTISSLQPEDFATYYCHQRNSFPYTFGQGTKLEIK
2. TPP-5906, humanized and germlined 6C12 Fab; VL: (S24R, A26S, S49A, P54Q, F95Y); VH: (I48M, D56G, D66G, L70M, T72R) (Fab, V domains shown, The text says that a 6xHIS tag is present on the Fabs in the peptide ELISA; it is not in the printed chains) VH: EVQLVQSGAEVKKPGASVKVSCKASGYTFTTYTIHWVRQAPGQGLEWMGYINPSSGYTRYNPKFKGRVTMTRDKSTSTAYMELRSLRSDDTAVYYCQTGTRDYWGQGTTVTVSS VL: DIQLTQSPSFLSASVGDRVTITCRASSSVSYIYWFQQKPGKAPKLLIYATSTLQSGVPSRFSGSGSGTEYTLTISSLQPEDFATYYCHQRNSFPYTFGQGTKLEIKR
3. TPP-7797, affinity matured 6C12 Fab (Fab, V domains shown, Tested as Fab) VH: EVQLVQSGAEVKKPGASVKVSCKASGYTFTTYTIHWVRQAPGQGLEWMGYINPSSGYTRYNPKFKGRVTMTRDKSTSTAYMELRSLRSDDTAVYYCWTGRRDYWGQGTTVTVSS VL: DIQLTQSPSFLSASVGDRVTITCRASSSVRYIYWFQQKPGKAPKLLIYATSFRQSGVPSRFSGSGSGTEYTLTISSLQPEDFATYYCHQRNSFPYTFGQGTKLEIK
4. TPP-7778, affinity matured 6C12 Fab (Fab, V domains shown, Tested as Fab) VH: EVQLVQSGAEVKKPGASVKVSCKASGYTFTTYAIHWVRQAPGQGLEWMGYINPSSGYTRYNPKFKHRVTMTRDKSTSTAYMELRSLRSDDTAVYYCQTGTRDYWGQGTTVTVSS VL: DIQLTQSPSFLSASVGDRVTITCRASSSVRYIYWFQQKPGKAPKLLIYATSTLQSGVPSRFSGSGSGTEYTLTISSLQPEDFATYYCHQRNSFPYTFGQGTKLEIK

97
93
97
95
